src = patent US20120277209A1

tested.target: PDE10 (UniProt Q9Y233)
assay.comment: PDE10 enzyme inhibition, IMAP TR-FRET assay (MPDE10A7 Enzyme Activity and Inhibition)
Assay type: biochemical
condition.info: IC50 class against PDE10; read-out: IC50
pIC50: −log10 of the molar value.
I'd appreciate it if you could supply pIC50 values for the items below.

Query block: Quick check: pIC50 of COc1cccc(-c2nccnc2Oc2ccc(Nc3nc4ccccc4s3)cc2)c1 [Example 150] ?
Result block: 7.00 to 7.60

Query block: Quick check: pIC50 of O=C(c1ccc(Oc2nccnc2C2CCOCC2)cc1)c1nc2ccccc2[nH]1 [Example 181] ?
Result block: > 7.60

Query block: Quick check: pIC50 of O=C(c1ccc(Oc2nccnc2OCc2cccnc2)cc1)c1nc2ccccc2[nH]1 [Example 179] ?
Result block: 6.60 to 7.00

Query block: Quick check: pIC50 of Fc1ccc2sc(Nc3ccc(Oc4cnccn4)cc3)nc2c1 [Example 219] ?
Result block: 5.30 to 6.00

Query block: Quick check: pIC50 of COCC(=O)N1CCC(c2nccnc2Oc2ccc(C(=O)c3nc4ccccc4[nH]3)cc2)CC1 [Example 232] ?
Result block: > 7.60

Query block: Quick check: pIC50 of O=C(O)c1ccc(-c2nccnc2Oc2ccc(C(=O)c3nc4ccccc4[nH]3)cc2)cc1 [Example 127] ?
Result block: > 7.60

Query block: Quick check: pIC50 of N#CC1CCN(c2nccnc2Oc2ccc(Nc3nc4ccccc4s3)cc2)C1 (stereo not drawn) [Example 84] ?
Result block: > 7.60

Query block: Quick check: pIC50 of c1ccc2sc(Nc3ccc(Oc4nccnc4N4CCC4)cc3)nc2c1 [Example 77] ?
Result block: 7.00 to 7.60

Query block: Quick check: pIC50 of COCCOc1nccnc1Oc1ccc(C(=O)c2nc3ccccc3[nH]2)cc1 [Example 165] ?
Result block: 6.00 to 6.60
